# Test system: UO-31 renal
# Test details: NCI tumour cell line growth inhibition, 48 h; in the data active means GI50 below about 0.43 µM; inactive means the rest
Outcome codes: active, inactive

>  <Compound>
COc1ccc(-c2cc3cccc(OC)c3c(=O)o2)cc1OC

>  <Class label>
inactive

$$$$
>  <Compound>
Cc1nc2sc(C(=O)Nc3cccc4ccccc34)c(N)c2cc1C(C)O (centres undefined)

>  <Class label>
active

$$$$
>  <Compound>
O=C1Nc2ccc(Cl)cc2/C1=C\c1c(-c2ccc(F)cc2)nc2ccccn12

>  <Class label>
inactive

$$$$
>  <Compound>
C[C@]12CC[C@H](O)CC1=CC[C@@H]1[C@@H]2CC[C@]2(C)C(=O)/C(=C/c3cccc(OCCCn4ccnc4)c3)C[C@@H]12

>  <Class label>
inactive

$$$$
